System: LCK;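 also: KINOMEscan scanMAX binding as percent activity remaining versus control; lower means stronger binding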
SETTINGS: Compound Concentration (nM):1000
Catalogue of Percent Control readings, one per entry.
ATTRIBUTE MEASURED: Percent Control (%)

molecule="COc1ccc2[nH]c3c4[nH]c5ccc(OC)cc5c4c4c(c3c2c1)C(=O)NC4=O [GW296115X]" meas_value=85
molecule="COc1cc(N2CCN(C(C)C)CC2)ccc1Nc1nc(Nc2ccc(F)cc2C(=O)NC[C@@H](O)CO)c2cc[nH]c2n1 [GSK1392956A]" meas_value=100
molecule="COc1ccc2c(-c3ccnc(Nc4cccc(OC(F)(F)F)c4)n3)cnn2n1 [GW810372X]" meas_value=100
molecule="C/C(Nc1ccc(S(N)(=O)=O)cc1)=C1/C(=O)Nc2ccccc21 [GW335962X]" meas_value=91
molecule="Cc1cc(O)cc(C)c1/C=C/c1cncc(C(N)=O)c1 [GW435821X]" meas_value=25
molecule=COc1ccc2cc(-c3c(-c4ccncc4)nc(-c4ccc(S(C)(=O)=O)cc4C)n3C)ccc2c1 meas_value=54
molecule=CCn1c(-c2nonc2N)nc2c(C#CC(C)(C)O)nc(OCCNC)cc21.Cl meas_value=100
molecule=CCc1ccc(Oc2nccc(-c3c(-c4ccc(F)cc4)ncn3C3CCNCC3)n2)cc1 meas_value=74
molecule="CN(C)c1cc2c(Nc3ccc4c(cnn4Cc4ccccc4)c3)ncnc2cn1 [GW282974X]" meas_value=77
molecule="NS(=O)(=O)c1ccc(N/N=C2\\C(=O)Nc3ccc(Cl)cc32)cc1 [GW280670X]" meas_value=96

Reference source: paper PMC7826789
